The reported numbers originate from PubChem BioAssay (NCI).

- Test system: SK-MEL-2 melanoma
- Assay details: NCI tumour cell line growth inhibition, 48 h
Parameter: TGI

- Compound: "O=C(C=Nc1ccccc1C(=O)[O-])c1cccs1.O=C(C=Nc1ccccc1C(=O)[O-])c1cccs1.[Ni+2]"
  Value measured: "> 100 µM"
- Compound: "CCOC(=O)/C=C(/C(=O)OCC)n1cc(C)c(=O)n(Cc2cnnn2COCCOC(C)=O)c1=O"
  Value measured: "60.3 µM"
- Compound: "NC1N=Nc2ccccc21 (stereo unspecified)"
  Value measured: "> 100 µM"
- Compound: "O=P(O)(O)c1ccc(-c2ccc(I)cc2)cc1"
  Value measured: "> 100 µM"
- Compound: "CCc1ccccc1NC(=O)C(=O)C(C#N)c1ccccc1Cl (stereo unspecified)"
  Value measured: "> 100 µM"
- Compound: "N#CC(C#N)=CNCCN1CCN(C=C(C#N)C#N)CC1"
  Value measured: "> 100 µM"
- Compound: "COc1ccc(-c2cc(/C=C3\\C(=O)Nc4cc(Cl)ccc43)[nH]n2)cc1"
  Value measured: "> 100 µM"
- Compound: "N#CC1C[C@@H]2CC3(CCC2CN1C(=O)c1ccccc1)OCCO3 (stereo partly specified)"
  Value measured: "> 21.6 µM"
- Compound: "CC(C)=CC1C(C(=O)Oc2ccccc2C(C)C)C1(C)C (stereo unspecified)"
  Value measured: "33.1 µM"
- Compound: "COc1cc(C2c3cc4c(cc3OC(NNC(N)=O)C2C)OCO4)cc(OC)c1OC (stereo unspecified)"
  Value measured: "> 100 µM"
- Compound: "Cc1ccc(-c2nc3nc(-c4ccc(F)cc4)nc(N4CCNCC4)c3o2)cc1"
  Value measured: "35.4 µM"

* * *

- Tested on: LOX IMVI melanoma
- Assay details: NCI tumour cell line growth inhibition, 48 h
Where a SMILES comes first, the peptide text is derived from it. The star is where a group is joined. Boc = CC(C)(C)OC(=O)*

- Compound: "Cc1ccc(C)c2c1C(=O)N(c1ccc(F)cc1F)C2=O"
  TGI: "> 100 µM"
- Compound: "O=c1ccc2ccc(CBr)cc2o1"
  TGI: "3.01 µM"
- Compound: "CCOP(=O)(CCCC(O)CNc1nc(N)nc(Cl)c1N=Nc1ccc(Cl)cc1)OCC (centres undefined)"
  TGI: "13.8 µM"
- Compound: "O=c1cc(-c2ccccc2)[nH]c2ncccc12"
  TGI: "> 100 µM"
- Compound: "CCn1c2nc(=O)n(CCCCCCCCSC(c3ccccc3)(c3ccccc3)c3ccccc3)c(=O)c-2nc2ccccc21"
  TGI: "> 100 µM"
- Compound: "O=C(Cc1nc2ccc(C(=O)c3ccccc3)cc2[nH]c1=O)C(=O)Nc1nc2ccccc2[nH]1"
  TGI: "> 100 µM"
- Compound: "CCOC(=O)c1nc2ccc(OC)cc2c2c1Cc1ccccc1-2"
  TGI: "> 100 µM"
- Compound: "COC(=O)C12CCC(C)(C)CC1C1=CCC3C4(C)CC(O)C(O)C(C)(C(=O)OC)C4CCC3(C)C1(CO)CC2 (centres undefined)"
  TGI: "28.1 µM"
- Compound: "O=[N+]([O-])c1ccc(/C=C/c2nc3ccc(Cl)cc3[nH]2)cc1"
  TGI: "> 100 µM"
- Compound: "COC(=O)C(Cc1ccccc1)NC(=O)C(CS)NC(=O)OC(C)(C)C (stereo not drawn) (Boc-Cys-Phe-OMe; configuration not given here)"
  TGI: "> 100 µM"
- Compound: "Cn1cnc(N2CCCC2)c(C#N)c1=S"
  TGI: "> 100 µM"
- Compound: "Oc1c(CN2CCCC2)ccc2cccnc12"
  TGI: "60.5 µM"
- Compound: "O=C(NC(=S)Nc1ccc([N+](=O)[O-])cc1)c1ccc2c(c1)Sc1ccccc1O2"
  TGI: "> 100 µM"
- Compound: "COC(=O)c1cc(NC(=O)c2cc(NC(=O)c3cc([N+](=O)[O-])n(C)c3)cn2C)cn1C"
  TGI: "85.9 µM"
